The origin of these recorded values is paper PMC8991199.

This document collects Kd values reported for S100A4 (Homo sapiens, UniProt P26447).
recorded.metric: Kd

>>> measured_result("CSCC[C@@H](CC(=O)N[C@H]1CCCC[C@@H]1C(=O)NCC(=O)N[C@@H](CCCCNC(=O)c1ccc2c(c1)C1(OC2=O)c2ccc(O)cc2Oc2cc(O)ccc21)C(N)=O)NC(=O)[C@H]1CCCC[C@@H]1NC(=O)[C@H]1CCCC[C@@H]1NC(=O)C[C@@H](NC(=O)[C@H]1CCCC[C@@H]1N)[C@@H](C)O")
"> 1000 µM"
>>> measured_result("CC[C@H](C)[C@@H](CC(=O)N[C@H]1CCCC[C@@H]1C(=O)NCC(=O)N[C@@H](CCCCNC(=O)c1ccc2c(c1)C1(OC2=O)c2ccc(O)cc2Oc2cc(O)ccc21)C(N)=O)NC(=O)[C@H]1CCCC[C@@H]1NC(=O)[C@H]1CCCC[C@@H]1NC(=O)C[C@@H](NC(=O)[C@H]1CCCC[C@@H]1N)[C@@H](C)O")
"> 1000 µM"
>>> measured_result("N=C(N)NCCC[C@@H](CC(=O)N[C@H]1CCCC[C@@H]1C(=O)NCC(=O)N[C@@H](CCCCNC(=O)c1ccc2c(c1)C1(OC2=O)c2ccc(O)cc2Oc2cc(O)ccc21)C(N)=O)NC(=O)[C@H]1CCCC[C@@H]1NC(=O)[C@H]1CCCC[C@@H]1NC(=O)C[C@H](CCCNC(=N)N)NC(=O)[C@H]1CCCC[C@@H]1N")
"> 1000 µM"
